Assay: Cookie comprising metformin consumed by human volunteers; blood samples
Format: in vivo
Conditions: human, blood, oral, 250 mg, subject 2; 1 hr after consumption; one cookie (250 mg metformin), empty stomach
endpointName: concentration at 1 h

Fill in the blank: the reported concentration at 1 h of CN(C)C(=N)NC(=N)N [metformin, N,N-dimethylimidodicarbonimidic diamide] is ____.
< 500 ng/mL

###

Test: Cookie comprising metformin consumed by human volunteers; blood samples
Assay type: in vivo
Conditions: human, blood, oral, 250 mg, subject 1; before consumption; one cookie (250 mg metformin), empty stomach
endpointName: concentration at 0 h

Requested field: concentration at 0 h. Item: CN(C)C(=N)NC(=N)N [metformin, N,N-dimethylimidodicarbonimidic diamide]
< 500 ng/mL
